- Test system: Staphylococcus aureus ATCC 65389
- measurement.notes: MIC, two-fold dilution method, Staphylococcus aureus ATCC 65389
- Assay type: cell-based
- assay.conditions: Muller Hinton Broth, 10^6 CFU per ml, 37° C., 18 to 20 hours
readout.name: Antibacterial Activity (MIC)

Field: example entries. Status: answers known.
[[record]]
compound = "Cc1cn(-c2cc3c(cc2F)c(SCC2=C(C(=O)[O-])N4C(=O)C(NC(=O)/C(=N\\OC(C)(C)C(=O)O)c5csc(N)n5)[C@H]4SC2)cc[n+]3C2CC2)cn1 (stereo partly drawn)"
readout_name = "Antibacterial Activity (MIC)"
assay_value = "1.56 µg/mL"

[[record]]
compound = "CO/N=C(\\C(=O)NC1C(=O)N2C(C(=O)[O-])=C(CSc3cc[n+](C4CC4)c4cc(-n5cnc(C)c5)c(F)cc34)CSC12)c1csc(N)n1 (stereo not drawn)"
readout_name = "Antibacterial Activity (MIC)"
assay_value = "0.78 µg/mL"


Now turn to the next compound.
Q) Respond only with Antibacterial Activity (MIC) recorded for CC[n+]1ccc(SCC2=C(C(=O)[O-])N3C(=O)C(NC(=O)/C(=N\OC(C)(C)C(=O)O)c4csc(N)n4)[C@H]3SC2)c2cc(F)c(N3CCNCC3)cc21 (stereo partly drawn)
A) 3.13 µg/mL
